Target: UniProt Q86X55
Sequence (Q86X55 whole entry, species assumed): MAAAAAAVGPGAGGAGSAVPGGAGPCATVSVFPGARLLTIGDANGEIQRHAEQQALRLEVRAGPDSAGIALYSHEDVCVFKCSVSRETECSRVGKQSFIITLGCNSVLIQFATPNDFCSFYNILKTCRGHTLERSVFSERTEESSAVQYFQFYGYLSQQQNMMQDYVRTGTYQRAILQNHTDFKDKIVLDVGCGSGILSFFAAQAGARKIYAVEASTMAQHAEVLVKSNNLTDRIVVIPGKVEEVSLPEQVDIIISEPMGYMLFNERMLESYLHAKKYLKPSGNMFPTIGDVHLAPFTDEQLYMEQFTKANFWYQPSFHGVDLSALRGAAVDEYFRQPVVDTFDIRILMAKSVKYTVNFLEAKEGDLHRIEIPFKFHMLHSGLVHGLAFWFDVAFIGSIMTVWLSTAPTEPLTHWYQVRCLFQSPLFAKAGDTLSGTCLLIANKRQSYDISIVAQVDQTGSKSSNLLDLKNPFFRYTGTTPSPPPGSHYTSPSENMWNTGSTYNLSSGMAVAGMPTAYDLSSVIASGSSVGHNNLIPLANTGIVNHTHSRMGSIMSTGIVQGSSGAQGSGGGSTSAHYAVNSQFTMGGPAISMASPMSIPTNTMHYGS
Assay: radioactive assay (Reaction Biology Corp.), inhibition of PRMT4
Format: biochemical
measured_attribute: inhibition at 10 µM (%)

query: Fill blank: measured inhibition at 10 µM of the compound Nc1ncnc2c1ncn2[C@@H]1O[C@H](CSCCCNCc2cccc(-c3ccc(F)c(O)c3)c2)[C@@H](O)[C@H]1O [Compound 10r] is ____.
result: 95

query: Query (compound): Nc1ncnc2c1ncn2[C@@H]1O[C@H](CSCCCNC(=O)NCCCc2ccccc2)[C@@H](O)[C@H]1O ; field requested: inhibition at 10 µM
result: 62

P. Nc1ncnc2c1ncn2[C@@H]1O[C@H](CSCCCNCc2cccc(-c3cccc(F)c3)c2)[C@@H](O)[C@H]1O [Compound 10q]
Q. Nc1ncnc2c1ncn2[C@@H]1O[C@H](CSCCOc2ccc(-c3cccc(O)c3)cc2)[C@@H](O)[C@H]1O [Compound 14f]
R. Nc1ncnc2c1ncn2[C@@H]1O[C@H](CSCCNC(=O)NCc2ccc(-c3cccc(O)c3)cc2)[C@@H](O)[C@H]1O
S. COc1cc2nc(-c3ccc(N)cc3)nc(NCCSC[C@H]3O[C@@H](n4cnc5c(N)ncnc54)[C@H](O)[C@@H]3O)c2cc1OC [Compound 12j]
query: # rank by inhibition at 10 µM, ascending (min first) Please respond with the labels ordered as the question requires.
result: S, R, Q, P

a. Nc1ncnc2c1ncn2[C@@H]1O[C@H](CSCCNCc2cccc(-c3ccccc3O)c2)[C@@H](O)[C@H]1O [Compound 10j]
b. Nc1ncnc2c1ncn2[C@@H]1O[C@H](CSCCOc2ccc(-c3ccncc3)cc2)[C@@H](O)[C@H]1O [Compound 14h]
query: Hey, between a and b which has a smaller measured inhibition at 10 µM? # reply format: chosen label
result: b

---

Target: PRMT8 (Homo sapiens, UniProt Q9NR22)
Sequence (Q9NR22 whole entry, species assumed): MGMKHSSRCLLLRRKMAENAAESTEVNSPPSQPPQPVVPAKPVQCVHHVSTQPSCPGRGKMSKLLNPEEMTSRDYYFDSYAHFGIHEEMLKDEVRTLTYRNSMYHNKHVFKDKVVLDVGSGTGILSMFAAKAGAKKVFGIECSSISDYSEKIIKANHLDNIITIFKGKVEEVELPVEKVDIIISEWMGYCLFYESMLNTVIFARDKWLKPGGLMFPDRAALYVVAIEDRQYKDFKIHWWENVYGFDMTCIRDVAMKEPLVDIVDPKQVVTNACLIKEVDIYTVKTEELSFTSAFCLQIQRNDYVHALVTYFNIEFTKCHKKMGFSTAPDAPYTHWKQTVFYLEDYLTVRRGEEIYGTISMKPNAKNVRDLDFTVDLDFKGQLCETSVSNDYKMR
Assay: radioactive assay (Reaction Biology Corp.), inhibition of PRMT8
Assay type: biochemical
measured_attribute: inhibition at 10 µM (%)

1. N=C(NCCCSC[C@H]1O[C@@H](n2cnc3c(N)ncnc32)[C@H](O)[C@@H]1O)Nc1ccccc1
2. Nc1ncnc2c1ncn2[C@@H]1O[C@H](CSCCOc2ccc(-c3cccc(O)c3)cc2)[C@@H](O)[C@H]1O [Compound 14f]
3. COc1cc2nc(-c3cccc(O)c3)nc(NCCSC[C@H]3O[C@@H](n4cnc5c(N)ncnc54)[C@H](O)[C@@H]3O)c2cc1OC [Compound 12g]
4. Nc1ncnc2c1ncn2[C@@H]1O[C@H](CSCCNC(=O)NCc2ccccc2Br)[C@@H](O)[C@H]1O
query: Exam item: list the entries in increasing order of inhibition at 10 µM. Ranked list of labels, please, in the requested order.
result: 4, 3, 2, 1
(4: -13%, 3: 25%, 2: 40%, 1: 98%)

---

Target: UniProtKB Q96LA8
Sequence (Q96LA8 whole entry, species assumed): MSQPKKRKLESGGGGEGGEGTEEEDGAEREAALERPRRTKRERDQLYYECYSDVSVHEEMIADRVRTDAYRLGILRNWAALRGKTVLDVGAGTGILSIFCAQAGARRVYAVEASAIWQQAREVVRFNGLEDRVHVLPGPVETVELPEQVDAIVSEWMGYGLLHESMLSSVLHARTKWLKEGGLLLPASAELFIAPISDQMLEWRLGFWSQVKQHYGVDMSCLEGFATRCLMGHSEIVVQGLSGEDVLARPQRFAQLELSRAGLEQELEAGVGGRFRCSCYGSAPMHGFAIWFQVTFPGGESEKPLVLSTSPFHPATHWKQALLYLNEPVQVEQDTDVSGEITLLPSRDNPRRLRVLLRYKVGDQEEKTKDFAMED
Test: radioactive assay (Reaction Biology Corp.), inhibition of PRMT6
Format: biochemical
measured_attribute: inhibition at 10 µM (%)

Example entries and their recorded answers appear below.
query: Could you share which inhibition at 10 µM value was measured for Nc1ncnc2c1ncn2[C@@H]1O[C@H](CSCCNC(=O)NCc2ccc(F)cc2)[C@@H](O)[C@H]1O [Compound 7d] ?
result: 25

query: Form field: reported inhibition at 10 µM of Nc1ncnc2c1ncn2[C@@H]1O[C@H](CSCCNC(=O)NCc2ccc(-c3cc[nH]n3)cc2)[C@@H](O)[C@H]1O [Compound 8f]
result: -6

query: Which measured inhibition at 10 µM value corresponds to N=C(NCCCSC[C@H]1O[C@@H](n2cnc3c(N)ncnc32)[C@H](O)[C@@H]1O)NCc1ccccc1 [Compound 5e] ?
result: 98

I. COc1cc2nc(-c3ccc(Cl)cc3)nc(NCCSC[C@H]3O[C@@H](n4cnc5c(N)ncnc54)[C@H](O)[C@@H]3O)c2cc1OC [Compound 12a]
II. N=C(NCCCSC[C@H]1O[C@@H](n2cnc3c(N)ncnc32)[C@H](O)[C@@H]1O)Nc1cccc(F)c1 [Compound 7s]
query: // compare measured inhibition at 10 µM between I and II ; output the lower one Pick one and reply with its label.
result: II
(II: 49%, I: 85%)

A. N=C(NCCSC[C@H]1O[C@@H](n2cnc3c(N)ncnc32)[C@H](O)[C@@H]1O)Nc1cccc(-c2ccoc2)c1 [Compound 6c]
B. Nc1ncnc2c1ncn2[C@@H]1O[C@H](CSCCNCc2cccc(-c3ccccc3O)c2)[C@@H](O)[C@H]1O [Compound 10j]
query: Between A and B , which one has the lower reported inhibition at 10 µM value? Please respond with the label that marks your chosen entry.
result: B
(B: 43%, A: 76%)
